This section presents compounds with their documented inhibition values.
Target: Protein deacetylase HDAC6 (Homo sapiens) (UniProt Q9UBN7)
Sequence (Q9UBN7 whole entry): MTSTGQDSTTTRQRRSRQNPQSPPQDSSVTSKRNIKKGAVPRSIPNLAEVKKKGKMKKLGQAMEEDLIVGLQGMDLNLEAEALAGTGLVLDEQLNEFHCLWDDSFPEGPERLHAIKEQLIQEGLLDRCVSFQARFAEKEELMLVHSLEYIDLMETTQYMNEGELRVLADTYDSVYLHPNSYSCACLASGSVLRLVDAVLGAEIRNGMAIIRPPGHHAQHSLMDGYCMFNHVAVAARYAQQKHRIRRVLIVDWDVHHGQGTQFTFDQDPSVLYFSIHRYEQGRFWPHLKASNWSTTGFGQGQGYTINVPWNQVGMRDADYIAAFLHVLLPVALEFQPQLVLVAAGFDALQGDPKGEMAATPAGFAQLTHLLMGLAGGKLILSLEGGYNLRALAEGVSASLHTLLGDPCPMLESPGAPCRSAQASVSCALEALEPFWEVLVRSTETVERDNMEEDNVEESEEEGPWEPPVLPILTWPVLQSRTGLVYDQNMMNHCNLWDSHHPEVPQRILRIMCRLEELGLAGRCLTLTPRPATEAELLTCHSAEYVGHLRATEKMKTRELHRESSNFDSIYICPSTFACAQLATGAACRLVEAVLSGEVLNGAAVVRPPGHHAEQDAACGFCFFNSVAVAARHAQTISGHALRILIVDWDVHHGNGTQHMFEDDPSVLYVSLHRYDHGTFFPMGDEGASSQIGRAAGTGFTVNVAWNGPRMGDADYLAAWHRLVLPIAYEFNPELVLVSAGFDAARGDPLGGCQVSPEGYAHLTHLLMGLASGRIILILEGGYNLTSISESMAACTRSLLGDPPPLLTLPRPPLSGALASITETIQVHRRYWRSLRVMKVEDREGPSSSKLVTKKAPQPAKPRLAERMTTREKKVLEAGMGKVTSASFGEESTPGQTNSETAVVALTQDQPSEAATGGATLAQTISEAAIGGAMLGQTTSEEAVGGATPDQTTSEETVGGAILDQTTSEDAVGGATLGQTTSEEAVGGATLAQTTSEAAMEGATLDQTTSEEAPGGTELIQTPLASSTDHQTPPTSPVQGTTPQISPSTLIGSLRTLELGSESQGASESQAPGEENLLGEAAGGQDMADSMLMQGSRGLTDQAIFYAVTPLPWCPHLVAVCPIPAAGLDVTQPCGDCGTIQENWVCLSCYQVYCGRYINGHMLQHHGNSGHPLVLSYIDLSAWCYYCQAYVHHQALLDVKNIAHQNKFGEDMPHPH
Conditions: at 10 µM
The campaign covered roughly 5,600 compounds. About 390 (7%) showed an effect of 50% or more. The sample holds strong results, similar compounds and a random draw of the others, so the mix is not that of the screen.
// unit must come after the numeric part

Illustrative cases are given below, each with its answer.
compound	experimentalResult
CCO[C@@H]1OC(=O)C[C@@H]1NC(=O)[C@@H]1CCCN1C(=O)[C@@H](NC(=O)c1ccc(N)c(Cl)c1)C(C)(C)C	12.6%
CCOc1cc(/C=C2/C(=O)N(c3ccccc3)N=C2C)cc(Cl)c1OCC(=O)OC	101%
c1ccc(-c2cnn3cc(-c4ccc(OCCN5CCOCC5)cc4)cnc23)cc1	92.3%
COc1ccc(C(=O)CCC(=O)O)c2ccccc12	0.61%
Oc1ccc(Cl)cc1	-5.79%
C=CC(=O)N1CCC[C@@H](n2c(=O)n(-c3ccc(Oc4ccccc4)cc3)c3c(N)ncnc32)C1	9.93%
CC(C)Oc1ccc(-c2cnc3c(-c4ccnc5ccccc45)cnn3c2)cc1	-2.96%
O=C(O)CCCNC(=O)c1cccnc1	28.7%

Which inhibition is reported for this compound? Oc1ncc(N(CCCl)CCCl)c(O)n1
2.6%

For CC(C)C(=O)OCC(=O)[C@@]12O[C@H](C3CCCCC3)O[C@@H]1C[C@H]1[C@@H]3CCC4=CC(=O)C=C[C@]4(C)[C@H]3[C@@H](O)C[C@@]12C then?
7.25%

Follow-up item: Cc1cccc(Oc2cnc(=O)[nH]c2)c1
16.9%

Ok, now O=C(c1cn(Cc2cncn2Cc2ccc(Br)cc2)cc1-c1cccc2ccccc12)N1CCOCC1
-6.62%

Record: Nc1ncnc2c1c(-c1cnc3[nH]ccc3c1)nn2C1CCCC1
27.2%

Try this compound next: CC1=C(O)C(=O)[C@@H]2O[C@@H]2C1=O
-8.14%

What do we get for NC1=NC(=O)N([C@H]2C[C@H](O)[C@@H](CO)O2)CN1 ?
19.8%

###

Target: Protein deacetylase HDAC6 (Homo sapiens)
Settings: at 10 µM
In all, about 5,600 compounds went through this assay and about 390 (7%) showed an effect of 50% or more. Only a selection was taken, and strong results are over-represented in it overall.
endpointLabel: inhibition
# do not omit the unit; it follows the number

Name the recorded inhibition for NC(=O)c1nc(Nc2ccccc2)sc1NC(=O)C1CCCCC1 .
11.1%

Try this compound too: O=C1C2CC3CC1CC(O)(C3)C2
26.7%

Next up: COc1cccc2c1c(O)c(C(=O)N(C)c1ccc(C(F)(F)F)cc1)c(=O)n2C
-4.13%

###

Biological target: Protein deacetylase HDAC6 (Homo sapiens) (UniProt Q9UBN7)
Conditions: at 10 µM
Screen size: about 5,600 compounds; about 390 (7%) showed an effect of 50% or more. This excerpt belongs to a sample that is enriched for strong results.
The reader will find reported inhibition values listed item by item below.
Reply numerically in %, unit not repeated.

Some compounds with known inhibition results, for comparison:
compound	inhibition / %
Cc1ccc(C23CNCC2C3)cc1 (stereo unspecified)	-3.02
NCCCC[C@H](N)C(=O)O	-8.14
COC1[C@@H](O)[C@@H](O)C(O)[C@H](O)[C@H]1O (stereo partly specified)	-3.32
CON(C)C(=O)[C@H](O)[C@H](Cc1ccccc1)NC(=O)c1cc2cc(Cl)ccc2[nH]1	5.68
CC(C(=O)O)c1ccc(-c2ccccc2)c(F)c1 (racemic)	13.4

// switching to the query compound
Name the recorded inhibition for Cc1ccc(=O)n(-c2ccc(O)cc2)c1 .
1.55
